- Assayed Target: MtMetAP1a (Mycobacterium tuberculosis, UniProt P9WK21)
- Construct: made in house; host or cells: E. coli BL21 (DE3)
- Sequence (P9WK21 whole entry): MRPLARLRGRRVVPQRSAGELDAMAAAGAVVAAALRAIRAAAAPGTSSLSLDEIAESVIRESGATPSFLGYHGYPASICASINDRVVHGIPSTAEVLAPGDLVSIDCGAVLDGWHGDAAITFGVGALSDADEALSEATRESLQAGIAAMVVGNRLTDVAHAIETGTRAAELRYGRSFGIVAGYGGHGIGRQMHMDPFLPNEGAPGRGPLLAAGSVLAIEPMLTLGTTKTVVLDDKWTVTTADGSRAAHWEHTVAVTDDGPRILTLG
- Test Details: Coupled methionine-proline aminopeptidase assay (Met-Pro-pNA), IC50 determination
- Format: biochemical, M. tuberculosis
- Measurement Parameters: recombinant enzyme, 1.5 μM CoCl2, 600 μM Met-Pro-pNA; read-out: IC50 (μM) MtMetAP1a
Test Readout: IC50

Data request: Please give the documented IC50 of CC1=CC(=O)c2c(O)cccc2C1=O
Data returned: > 50 µM

Data request: Give a short answer stating reported IC50 for CC1=C(C/C=C(\C)CCCC(C)CCCC(C)C)C(=O)c2ccccc2C1=O (stereo not shown) .
Data returned: > 50 µM

Data request: Check the records and state IC50 for O=C1C(Cl)=C(N2C(=O)c3c(Cl)c(Cl)c(Cl)c(Cl)c3C2=O)C(=O)c2ccccc21
Data returned: 4 µM

Data request: Look up and report measured IC50 for this entry: Cc1ccc(Cl)cc1N1CCN(C2=C(Cl)C(=O)c3ccccc3C2=O)CC1
Data returned: > 100 µM

Data request: Give IC50 for O=C1C(Cl)=C(Nc2ccccc2)C(=O)c2ccccc21
Data returned: > 50 µM

Data request: Report IC50 for O=C1C(Cl)=C(N2CCN(c3cccc(Cl)c3)CC2)C(=O)c2ccccc21
Data returned: > 100 µM

Data request: Give the measured IC50 for O=C(NC1=C(Cl)C(=O)c2ccccc2C1=O)c1cc(C(F)(F)F)cc(C(F)(F)F)c1
Data returned: > 50 µM

Data request: Give the measured IC50 for O=C1C=CC(=O)c2c(O)cccc21
Data returned: > 50 µM

Data request: Give a short answer stating reported IC50 for NC1=C(Cl)C(=O)c2ccccc2C1=O .
Data returned: > 100 µM

Data request: For the compound O=C1C(Cl)=C(N2CCCCC2)C(=O)c2ccccc21 , report IC50.
Data returned: 8 µM

----------
- Assayed Target: MtMetAP1a (Mycobacterium tuberculosis, UniProt P9WK21)
- Construct: made in house; host or cells: E. coli BL21 (DE3)
- Test Details: Coupled methionine-proline aminopeptidase assay (Met-Pro-pNA), IC50 determination
- Format: biochemical, M. tuberculosis
- Measurement Parameters: read-out: inhibitor of MtMetAP1a (potency in text)
Test Readout: IC50

Data request: Return IC50 (reported value) for this compound: ON=CNc1nc2c(s1)CCOc1cc3c(cc1-2)OCO3
Data returned: 760 nM

----------
- Assayed Target: MtMetAP1c (Mycobacterium tuberculosis)
- Construct: made in house; host or cells: E. coli BL21
- Sequence (P9WK19 whole entry): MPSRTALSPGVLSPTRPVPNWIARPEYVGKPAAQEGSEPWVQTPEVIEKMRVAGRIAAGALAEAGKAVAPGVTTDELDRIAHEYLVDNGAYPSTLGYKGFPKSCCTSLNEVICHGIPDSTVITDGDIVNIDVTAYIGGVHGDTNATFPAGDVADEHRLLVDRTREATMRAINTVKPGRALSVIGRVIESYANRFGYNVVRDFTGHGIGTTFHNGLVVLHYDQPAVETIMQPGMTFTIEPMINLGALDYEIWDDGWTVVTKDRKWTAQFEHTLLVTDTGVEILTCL
- Test Details: Coupled methionine-proline aminopeptidase assay (Met-Pro-pNA), IC50 determination
- Format: biochemical, M. tuberculosis
Test Readout: IC50 (µM)
Give a bare numeral; the unit µM is implied.

Data request: Fill in reported IC50 for this entry: O=C1C(Cl)=C(Cl)C(=O)c2ccccc21
Data returned: 6.6

----------
- Assayed Target: MtMetAP1c (Mycobacterium tuberculosis)
- Construct: made in house; host or cells: E. coli BL21
- Test Details: Coupled methionine-proline aminopeptidase assay (Met-Pro-pNA), IC50 determination
- Format: biochemical, M. tuberculosis
- Measurement Parameters: read-out: inhibitor of MtMetAP1c (potency in text)
- Protocol: Determination of IC50 of Inhibitors of MtMetAPs and Clustering of Structural Classes of Inhibitors (ASDI-ISIS) We determined the concentration needed for 50% inhibition in 96-well plates at final concentrations ranging from 100 μM-300 nM (for 81 compounds that were available in larger quantities). […]
Test Readout: IC50 (nM)
Express your answer in nM, writing the number without its unit.

Data request: Please report the measured IC50 for ON=CNc1nc2c(s1)CCOc1cc3c(cc1-2)OCO3 tested on MtMetAP1c (Mycobacterium tuberculosis).
Data returned: 60
